- Tested on: SK-OV-3 ovarian
- TEST PROTOCOL: NCI-60 one-dose screen, 48 h (100 = growth as untreated, 0 = no growth, -100 = all killed)
- MEASUREMENT CONTEXT: 10 µM unless noted
About 83,000 compounds went through this panel and 20% of them were active in at least one assay; those are over-represented in the sample as a whole.
MEASURED PROPERTY: growth (%)
Just the number in %, nothing appended.

Lab note: COCCNC(=O)Nc1ccc2nc(-c3cccs3)c(-c3cccs3)nc2c1 gave growth of 98.8

Lab note: Cc1c(O)cc(-c2cnc(Nc3ccccc3)s2)c(O)c1C gave growth of 94.5

Lab note: O=C(c1nn(-c2ccccc2)c2c1CC(NCc1ccc(F)cc1)CC2)N1CCCCC1 (stereo unspecified) gave growth of 103

Lab note: Fc1ccc(CNc2c3ccccc3nc3ccccc23)c(F)c1 gave growth of 59.8

Lab note: C/C(=N\O)c1ccc(Cl)cc1 gave growth of 108

Lab note: COC(=O)/C=C1/SC(=Nc2cccc(OC)c2)N(CCc2c[nH]c3ccc(O)cc23)C1=O gave growth of 101

Lab note: CC(C)COc1nc2c(c(=O)n(C)c(=O)n2C)n1C gave growth of 90.7

Lab note: O=c1c2cnn(-c3ccccc3)c2n2c(CN3CCOCC3)nnc2n1-c1ccccc1 gave growth of 88.2

Lab note: COc1ccc(-c2cc(-c3cccnc3)nc3sc4c(=O)[nH]c(-c5ccc(Cl)cc5)nc4c23)cc1OC gave growth of 95.2

Lab note: CCN(CC)CCCCCNc1cc(OC(=O)c2ccc(Cl)cc2)cc2cccnc12 gave growth of 119

Lab note: Cn1cc(-c2csc(-c3c[nH]c4ccccc34)n2)c2cnccc21 gave growth of 85.3

Lab note: O=C1/C(=C/c2cccc(F)c2)CN(C(=O)C(Cl)Cl)C/C1=C\c1cccc(F)c1 gave growth of 29.8

Lab note: CCOC(=O)C#Cc1c(C(=O)OCC)nnn1Cc1ccc([N+](=O)[O-])cc1 gave growth of 105

Lab note: N#Cc1nc(-c2ccc(F)cc2)oc1S(=O)(=O)N1CCOCC1 gave growth of 99.4

Lab note: CCOC(=O)c1csc(NC(=O)COc2ccc(/C=C3\Oc4ccccc4C3=O)cc2)n1 gave growth of 138

Lab note: O=c1c2ccccc2n2cnc3ccc(Cl)c1c32 gave growth of 69.8

Lab note: CCN(CC)c1ccc(\C=N/N=C(N)/C(N)=N\N=C/c2ccc(N(CC)CC)cc2)cc1 gave growth of 102

Lab note: CCOC(=O)C1=C(c2ccccc2)N=C2SC=C(c3ccc(Cl)cc3)N2C1c1ccc(Br)cc1 (stereo unspecified) gave growth of 82.5

Lab note: O=C1c2c(c3c4ccccc4[nH]c3c3ccc4ccccc4c23)C(=O)N1CCN1CCOCC1 gave growth of 81.2

Lab note: COC(=O)c1cc(N=C2NC(=O)/C(=C/C=C/c3ccccc3)S2)ccc1O gave growth of 33.3

Lab note: N=C(N)c1ccc(-c2ccc(-c3ccccc3)o2)cc1 gave growth of -18.3
